Experiment: viability gain of MRP-1-high H69AR cells under doxorubicin, pilot screen, MRP-1 activator project, CellTiter-Glo, duplicate (AID 807);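 also: compound pretreatment 18-22 h then 72 h combined with doxorubicin; 0% = doxorubicin alone and 100% = vehicle without doxorubicin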
Conditions: H69AR viability with doxorubicin, CellTiter-Glo luminescence; at 10 µM; stronger effect = higher value
Quick reference for viability increase among some molecules

>  <MOLECULE>
Cc1nnc(SCc2ccc(Cl)cc2Cl)[nH]c1=O

>  <UNIT_ABBREV>
%

>  <viability increase>
0.05

$$$$
>  <MOLECULE>
COc1ccc(NC(=O)C2CCCNC2)cc1OCC(C)C (stereo unspecified)

>  <UNIT_ABBREV>
%

>  <viability increase>
-1.5

$$$$
>  <MOLECULE>
N=c1n(CCOc2ccccc2)c2ccccc2n1CCN1CCOCC1

>  <UNIT_ABBREV>
%

>  <viability increase>
-3.52

$$$$
>  <MOLECULE>
COCCN(CCOC)Cc1c(C)[nH]c2c(C)c(C)ccc2c1=O

>  <UNIT_ABBREV>
%

>  <viability increase>
-1.96

$$$$
>  <MOLECULE>
COc1ccc(Cn2nnc3c(=O)[nH]c(C4CCCN(C(=O)c5ccccc5)C4)nc32)cc1 (stereo unspecified)

>  <UNIT_ABBREV>
%

>  <viability increase>
-1.66

$$$$
>  <MOLECULE>
Cc1cc(C)c(C)c(S(=O)(=O)Nc2ccccc2C(=O)NCCCn2ccnc2)c1C

>  <UNIT_ABBREV>
%

>  <viability increase>
-5.57

$$$$

###

Below, each of the compounds is paired with its reported viability value.
Assay: SK-BR-3 cell growth inhibitors, pilot screen, 24 h, human (AID 572);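 also: compound exposure lasted between 18 and 24 h rather than exactly 24 h; 100% = carrier-treated control wells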
Details: SK-BR-3 viability, CellTiter-Glo luminescence, at 10 µM, stronger effect = lower value

>  <COMPOUND>
COc1ccc(/C(O)=C2/C(=O)C(=O)N(CCCN(C)C)C2c2ccc(Cl)cc2)cc1OC (centres undefined)

>  <viability / %>
101

$$$$
>  <COMPOUND>
CCOC(=O)C(NC(C)=O)(Nc1ccc(S(=O)(=O)Nc2nccs2)cc1)C(F)(F)F (centres undefined)

>  <viability / %>
120

$$$$
>  <COMPOUND>
CN1/C(=C\C(=O)C(F)F)C(C)(C)c2ccccc21

>  <viability / %>
90

$$$$
>  <COMPOUND>
Cc1cccc(C)c1OCc1nnc2c3cnn(C)c3ncn12

>  <viability / %>
100

$$$$
>  <COMPOUND>
CN1CCN(CC(=O)N2c3ccccc3C(=O)Nc3cccnc32)CC1

>  <viability / %>
122

$$$$
>  <COMPOUND>
COc1cc(OC)c(NC(=O)c2ccco2)cc1Cl

>  <viability / %>
121

$$$$
>  <COMPOUND>
O=C(CSc1ncccn1)c1ccccc1Br

>  <viability / %>
120

$$$$
>  <COMPOUND>
COCCNC(=O)CN1CCN(C(c2ccccc2)c2ccccc2)CC1

>  <viability / %>
86

$$$$
>  <COMPOUND>
COCCN1C(=O)c2oc3c(C)cc(C)cc3c(=O)c2C1c1cccc(O)c1 (centres undefined)

>  <viability / %>
101

$$$$
>  <COMPOUND>
O=C1CN(C(=O)CN2CCCC2)C(c2ccccc2)c2cc(Br)ccc2N1 (centres undefined)

>  <viability / %>
94

$$$$
>  <COMPOUND>
COc1cc(OC)cc(C(=O)N2c3ccc(F)cc3CCC2C)c1 (centres undefined)

>  <viability / %>
94.5

$$$$
>  <COMPOUND>
CCCn1c(C)cc(C(=O)COc2ncnc3sccc23)c1C

>  <viability / %>
89

$$$$
>  <COMPOUND>
CN(C)S(=O)(=O)c1ccc(/C(O)=C2/C(=O)C(=O)N(CCN3CCCCC3)C2c2cccnc2)cc1 (centres undefined)

>  <viability / %>
87

$$$$
>  <COMPOUND>
O=C(NCc1cccnc1)c1cn(CCc2ccccc2)nn1

>  <viability / %>
99.5

$$$$
>  <COMPOUND>
COc1cccc(S(=O)(=O)Nc2cccnc2)c1

>  <viability / %>
98

$$$$
>  <COMPOUND>
CCCCCc1c(C)nc(N2CCc3ccccc32)[nH]c1=O

>  <viability / %>
92.5

$$$$
>  <COMPOUND>
Cc1ccc(CSC2=NCCN2C(=O)c2ccco2)cc1

>  <viability / %>
95.5

$$$$
>  <COMPOUND>
CC(=O)NCCn1c(SCC(=O)NCC2CCCO2)nc2ccccc2c1=O (centres undefined)

>  <viability / %>
95

$$$$
>  <COMPOUND>
COc1cccc(N2CCN(CC(=O)NCc3cccs3)CC2)c1

>  <viability / %>
108

$$$$
>  <COMPOUND>
Cn1c(=O)c2ncn(CC(=O)NCCOc3ccc(C(C)(C)C)cc3)c2n(C)c1=O

>  <viability / %>
96.5

$$$$
>  <COMPOUND>
Cc1nc2nc(Cc3ccccc3)[nH]n2c(=O)c1Cc1ccccc1

>  <viability / %>
117

$$$$
>  <COMPOUND>
CCOC(=O)N1CCN(C(=O)CSc2cc(C)nc3c(-c4ccccc4OC)c(C)nn23)CC1

>  <viability / %>
79.5

$$$$
>  <COMPOUND>
CCCCOCP(=O)(CCCC)COCCCC

>  <viability / %>
92.5

$$$$
>  <COMPOUND>
O=S(=O)(NC1=NCCC1)c1cccs1

>  <viability / %>
106

$$$$
>  <COMPOUND>
CCCCSc1cc(C)nc2ncnn12

>  <viability / %>
98.5

$$$$
>  <COMPOUND>
O=C(NCc1ccco1)C1CCN(S(=O)(=O)N2CCC3(CC2)OCCO3)CC1

>  <viability / %>
99.5

$$$$
>  <COMPOUND>
CCOC(=O)C1=C(c2ccccc2)NC(=O)NC1c1ccc(N(C)C)cc1 (centres undefined)

>  <viability / %>
85.5

$$$$
>  <COMPOUND>
CCOC(=O)c1cccnc1SCC(=O)NC(C)CC (centres undefined)

>  <viability / %>
92

$$$$
>  <COMPOUND>
COc1ccc(CN(CCN(C)C)c2ccccn2)cc1

>  <viability / %>
91

$$$$
>  <COMPOUND>
CC(=O)N(C)C1(c2nnnn2CCOC(=O)Nc2cccc3ccccc23)CCCC1

>  <viability / %>
119

$$$$
>  <COMPOUND>
COc1c(Br)cc2c(C)c(C(=O)O)oc2c1Br

>  <viability / %>
104

$$$$
>  <COMPOUND>
O=C(NCC(c1cccnc1)N1CCOCC1)c1cccs1 (centres undefined)

>  <viability / %>
101

$$$$
>  <COMPOUND>
Cc1ccc2ncnc(NCCCN3CCOCC3)c2c1

>  <viability / %>
98.5

$$$$
>  <COMPOUND>
Cc1csc2nc(CNC(=O)c3ccco3)cn12

>  <viability / %>
86

$$$$
>  <COMPOUND>
CCSc1nncn1/N=C/c1ccc(OC)c(OC)c1

>  <viability / %>
84

$$$$
>  <COMPOUND>
COc1ccc(Cl)cc1N1CC(c2nc3ccccc3[nH]2)CC1=O (centres undefined)

>  <viability / %>
97.5

$$$$
>  <COMPOUND>
CC(C)CSc1nc2ccccc2n1CC(N)=O

>  <viability / %>
89.5

$$$$
>  <COMPOUND>
COc1ncnc2c1N=C1CC(C)(C)CC(N)=C1S2

>  <viability / %>
92.5

$$$$
>  <COMPOUND>
CCc1ccccc1OCCCCCNCCO

>  <viability / %>
85.5

$$$$
>  <COMPOUND>
COc1cccc(Cn2c(OCC3CCCO3)nc3c2c(=O)n(C)c(=O)n3C)c1 (centres undefined)

>  <viability / %>
86.5

$$$$
>  <COMPOUND>
CCOC(=O)c1c(C)[nH]c(C(=O)CSc2nc3ccccc3o2)c1C

>  <viability / %>
85.5

$$$$
>  <COMPOUND>
COc1cccc(OC)c1OCCNCCO

>  <viability / %>
126

$$$$
>  <COMPOUND>
CCCNS(=O)(=O)c1ccc(C(=O)NCC2CCCO2)cc1 (centres undefined)

>  <viability / %>
96.5

$$$$
>  <COMPOUND>
COc1ccc(CC(=O)Nc2ccc(-c3nnc(-c4ccc(C)cc4)o3)cc2)cc1

>  <viability / %>
114

$$$$
